Target: Hepatitis C virus NS3-NS4A protease (single-chain scNS3-4A)
Assay: HCV scNS3-4A protease cleavage blockers – biochemical, FRET peptide fluorescence, powder samples, selectivity assay for HCV NS3 helicase inhibitor project, late-stage follow-up (AID 623964)
The source made the active and inactive calls.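 Rule for the calls: active = compounds slowing the HCV NS3-NS4A protease by half at 50 µM or lower, per IC50; inactive = the rest.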
Could you please pick one outcome from this set? TRUE = active, FALSE = inactive

# input What classification did `Cc1ccc2nc(-c3ccc4nc(-c5ccc(NC(=O)c6ccc(N)cc6)cc5)sc4c3)sc2c1S(=O)(=O)O` end up with in this test?
# output TRUE

# input What classification did `COc1cccc2c(=O)c3cc(Cl)cc(C(=O)Nc4cc(Cl)ccn4)c3[nH]c12` end up with in this test?
# output FALSE

# input What classification did `COc1ccc(C(=O)Nc2ccc(-c3nc4ccc(-c5nc6ccc(C)c(S(=O)(=O)O)c6s5)cc4s3)cc2)cc1` end up with in this test?
# output FALSE

# input What classification did `Cc1ccc2nc(-c3ccc4nc(-c5ccc(NC(=O)c6ccc(C(C)(C)C)cc6)cc5)sc4c3)sc2c1S(=O)(=O)O` end up with in this test?
# output FALSE

# input What classification did `Cc1ccc2nc(-c3ccc4nc(-c5ccc(NC(=O)c6ccc(Br)cc6)cc5)sc4c3)sc2c1S(=O)(=O)O` end up with in this test?
# output TRUE

# input What classification did `CN1CCN(Cc2cc(CN3CCN(C)CC3)c(O)c(=O)c(CN3CCN(C)CC3)c2)CC1` end up with in this test?
# output FALSE

# input What classification did Cc1cc(C(O)(c2ccc(Nc3ccccc3)cc2)c2ccc(Nc3ccc(S(=O)(=O)O)cc3)cc2)ccc1N (stereo not drawn) end up with in this test?
# output FALSE

# input What classification did `COC(=O)c1ccc(C(=O)Nc2ccc(-c3nc4ccc(-c5nc6ccc(C)c(S(=O)(=O)O)c6s5)cc4s3)cc2)cc1` end up with in this test?
# output FALSE
